Collected pIC50 values appear next to each entry.
Study target: purified CutC (choline trimethylamine-lyase) (Oleidesulfovibrio alaskensis)
Sequence (Q30W70 53-846): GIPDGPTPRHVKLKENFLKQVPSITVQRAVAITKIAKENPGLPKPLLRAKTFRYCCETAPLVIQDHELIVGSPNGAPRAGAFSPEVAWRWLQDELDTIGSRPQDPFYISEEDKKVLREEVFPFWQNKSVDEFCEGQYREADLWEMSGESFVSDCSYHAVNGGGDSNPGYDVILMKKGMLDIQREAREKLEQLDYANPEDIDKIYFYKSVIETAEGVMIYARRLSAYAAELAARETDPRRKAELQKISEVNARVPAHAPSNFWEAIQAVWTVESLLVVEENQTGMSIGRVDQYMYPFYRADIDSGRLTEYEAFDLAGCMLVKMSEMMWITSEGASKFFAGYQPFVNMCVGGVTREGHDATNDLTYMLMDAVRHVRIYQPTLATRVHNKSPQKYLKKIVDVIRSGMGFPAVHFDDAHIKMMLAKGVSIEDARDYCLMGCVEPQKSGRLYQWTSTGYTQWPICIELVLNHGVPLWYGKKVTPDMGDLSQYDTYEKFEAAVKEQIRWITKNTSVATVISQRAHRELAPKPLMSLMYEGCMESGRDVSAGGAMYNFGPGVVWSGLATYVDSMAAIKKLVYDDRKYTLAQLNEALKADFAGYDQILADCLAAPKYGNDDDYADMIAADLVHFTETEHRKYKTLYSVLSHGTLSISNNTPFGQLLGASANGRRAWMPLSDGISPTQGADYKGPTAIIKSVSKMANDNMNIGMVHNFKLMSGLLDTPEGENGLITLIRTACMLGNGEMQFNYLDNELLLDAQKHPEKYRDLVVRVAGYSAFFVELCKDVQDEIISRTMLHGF
The scale used: pIC50 is minus the common logarithm of the concentration in molar units.

Below, each entry is followed by its recorded pIC50 result.
* Cc1ccc(-c2cc(C(=O)NCCCN3CCC(C)CC3)c(C)[nH]2)cc1C | 4.32
* Cc1cccc(-c2cc(C(=O)NCCCN3CCC(C)CC3)c(C)[nH]2)c1 | 4.19
* Cc1cc(-c2cc(C(=O)NCCCN3CCC(C)CC3)c(C)[nH]2)ccn1 | 4.35
* Cc1ccc(-c2cc(C(=O)NCCCCCN3CCCCCC3)c(C)[nH]2)cc1C | 4.77
* Cc1ccc(-c2cc(C(=O)NCCCN3CCCCCC3)c(C)[nH]2)cc1C | 4.62

Give pIC50 for this entry on purified CutC (choline trimethylamine-lyase) (Oleidesulfovibrio alaskensis): Cc1ccc(-c2cc(C(=O)N(C)CCCN3CCC(C)CC3)c(C)[nH]2)cc1C
4.74

---

pEC50 for assorted molecules
Test system: Proteus mirabilis ATCC 29906
Test details: TMA inhibition in bacterial whole cells (LC–MS/MS of d9-TMA from d9-choline)
Type: cell-based
Setup conditions: Proteus mirabilis, ATCC29906, 1.5 h; 1 mM d9-choline in PBS, 90 min, 37°C, anaerobic; read-out: EC50 in whole cells, P. mirabilis (TMA inhibition)
Please note pEC50 is a logarithmic value: minus log10 of concentration in mol/L. Answer with that number alone.

A selection of reference data follows.
• Cc1ccc(-c2cc(C(=O)NCCCN3CCc4ccccc4C3)c(C)[nH]2)cc1C = 4.48
• Cc1ccc(-c2cc(C(=O)NCCCN3CCCC3)c(C)[nH]2)cc1C = 3.98
• Cc1ccc(-c2cc(C(=O)NCCCCN3CCC(C)CC3)c(C)[nH]2)cc1C = 4.46
• Cc1ccc(-c2cc(C(=O)NCCN3CCC(C)CC3)c(C)[nH]2)cc1C = 4.19

// below: pEC50 requested for another molecule
# return recorded pEC50 for entry Cc1ccc(-c2cc(C(=O)NCCCCCN3CCCCCC3)c(C)[nH]2)cc1C
5.15

---

System: Proteus mirabilis ATCC 29906
Test details: TMA inhibition in bacterial whole cells (LC–MS/MS of d9-TMA from d9-choline)
Type: cell-based
Setup conditions: 1 mM d9-choline in PBS, 90 min, 37°C, anaerobic; read-out: EC50 in whole cells, P. mirabilis (TMA inhibition)
Under this convention, TRUE denotes EC50 strictly below 80 µM and FALSE denotes EC50 at or above 80 µM.

- Cc1ccc(-c2ccc(C(=O)NCCCN3CCC(C)CC3)[nH]2)cc1C: TRUE
- Cc1ccc(-c2cc(C(=O)NCCCN3CCC(C)CC3)c(C)[nH]2)cc1: FALSE

Field: next compound
Check if EC50 falls below 80 µM for Cc1ccc(-c2cc(C(=O)N(C)CCCN3CCC(C)CC3)c(C)[nH]2)cc1C .
FALSE

---

System: Proteus mirabilis ATCC 29906
Test details: TMA inhibition in bacterial whole cells (LC–MS/MS of d9-TMA from d9-choline)
Assay type: cell-based
Setup conditions: 1 mM d9-choline in PBS, 90 min, 37°C, anaerobic; read-out: EC50 in whole cells, P. mirabilis (TMA inhibition)
Parameter measured: pEC50
The scale used: pEC50 is minus the common logarithm of the concentration in molar units.

Use these answered entries as a reference point.
* Cc1ccc(-c2c[nH]c(C(=O)NCCCN3CCC(C)CC3)c2)cc1C | 4.38
* Cc1ccc(-c2cc(C(=O)NCCCN3CCC(C)CC3)c[nH]2)cc1C | 4.10
* Cc1cccc(-c2cc(C(=O)NCCCN3CCC(C)CC3)c(C)[nH]2)c1 | 4.34

Note pEC50 for the compound shown: Cc1ccc(-c2[nH]cc(C(=O)NCCCN3CCC(C)CC3)c2C)cc1C
3.88

Tell me its pEC50 given Cc1ccc(-c2ncc(C(=O)NCCCN3CCC(C)CC3)s2)cc1C as the entry.
3.71

Return pEC50 for the following compound: Cc1ccc(-c2cc(C(=O)NCCCN3CCC(C)CC3)cs2)cc1C
4.30

Look up and state reported pEC50 for Cc1[nH]c(-c2ccccc2)cc1C(=O)NCCCN1CCC(C)CC1
3.80
